Measured attribute: Melting Point (°C)

Compound: O=[N+]([O-])c1cccc2nc[nH]c12 [Example 12]
Result number: 242
--
Compound: Nc1cc(N)n(N)c(=S)n1 [Example 197]
Result number: 265
--
Compound: CN1Cc2cc(C3=NNC(=O)CC3)ccc2NC1=O [Example 79]
Result number: 250
--
Compound: O=[N+]([O-])c1ccc(NN=Cc2ccccn2)cc1 [Example 181]
Result number: 264
--
Compound: O=c1[nH]c(=S)oc2ccccc12 [Example 98]
Result number: 253
--
Compound: Cc1cc(C)c(C=O)cc1C [Example 28]
Result number: 243
--
Compound: c1nc2nc3nc[nH]cc3n2n1 [Example 77]
Result number: 250
--
Compound: O=[N+]([O-])c1ccc(NN=Cc2ccccc2Cl)cc1 [Example 73]
Result number: 249
--
Compound: O=C1CC(=O)N(c2ccccc2)C(=O)N1 [Example 160]
Result number: 262
--
Compound: Nc1ccc2cc([N+](=O)[O-])ccc2n1 [Example 201]
Result number: 265
--
Compound: c1ccc2nc3nccnc3nc2c1 [Example 71]
Result number: 249
--
Compound: O=[N+]([O-])c1nc2ccccc2[nH]1 [Example 127]
Result number: 258
--
Compound: NC(=O)C1c2ccccc2-c2ccccc21 [Example 86]
Result number: 251
--
Compound: c1cnc2c(ccc3nccnc32)n1 [Example 20]
Result number: 242
--
Compound: c1ccc(-c2n[nH]c(-c3ccccc3)c2-c2ccccc2)cc1 [Example 189]
Result number: 265
--
Compound: c1ccc2c(c1)-c1ccccc1C2C1c2ccccc2-c2ccccc21 [Example 56]
Result number: 246
--
Compound: Cc1[nH]nc2c1N(c1ccccc1)C(=O)CC(=O)N2C [Example 159]
Result number: 262
--
Compound: Oc1ccc2cc3ccccc3cc2c1 [Example 103]
Result number: 254

----------
Examples of compounds with documented Melting Point follow.

Worked examples, 2 compounds total:
Compound: Nc1ccc2c(c1)[nH]c1ccccc12
Melting Point: 245 to 247 °C
//
Compound: O=c1ccc2ncc[nH]c-2c1
Melting Point: 252 to 254 °C

Incoming: Can you share its Melting Point? I mean this compound: O=C(O)c1cccc2c1-c1ccc([N+](=O)[O-])cc1C2=O
Outgoing: 262 to 262.5 °C

----------
Here, each record is paired with measured Melting Point data.

A selection of reference data follows.
Compound: c1cc2c3c(cccc3c1)-c1nc3ccccc3nc1-2 [Example 10]
Measured attribute: Melting Point
Result: 241 °C
--
Compound: c1ccc2cc3c(ccc4cc5ccccc5cc43)cc2c1 [Example 123]
Measured attribute: Melting Point
Result: 257 °C
--
Compound: Cn1cnc2ncn(C)c2c1=O [Example 41]
Measured attribute: Melting Point
Result: 245 to 246 °C

Incoming: Which measured Melting Point value corresponds to Cc1cc(=O)oc2cccc(O)c12 [Example 169] ?
Outgoing: 263 °C

----------
Where a name gives a salt, the structure may show the parent alone.
Items are presented alongside their recorded Melting Point.

Use these answered entries as a reference point.
Molecule: CC1(C)Oc2ccc(C#N)cc2[C@H](n2ccccc2=O)[C@H]1O
Melting Point: 245 to 246 °C

Molecule: NC(=O)CCCC[C@@H]1SC[C@@H]2NC(=O)N[C@@H]21
Melting Point: 242 to 244 °C

Molecule: CC1=C(/C=C/C(C)=C/C=C/C(C)=C/C=C/C=C(C)/C=C/C=C(C)/C=C/C2=C(C)C(=O)C(=O)C2(C)C)C(C)(C)C(=O)C1=O
Melting Point: 243 °C

Molecule: CC(=O)Oc1c(C)c(C)c2c(c1C)CCC(C)(CCN(C)C)O2 (stereo not drawn) (as salt: hydrochloride)
Melting Point: 263 to 270 °C

Incoming: Form field: reported Melting Point of Nc1cccc2c1C(=O)c1c(N)cccc1C2=O
Outgoing: 265 °C

Incoming: How about this molecule: O=c1cc2oc3ccccc3oc-2cc1=O
Outgoing: 260 to 261 °C

----------
Measured Melting Point, listed per entry.

Compound: CCCCCCCCn1cnc2c(=S)nc[nH]c21 [Example 188]
Melting Point: 264 to 266 °C

Compound: O=C1c2ccccc2-c2oc(=O)c3ccccc3c21 [Example 156]
Melting Point: 261 to 262 °C

Compound: Oc1cc2cc3c(ccc4ccccc43)cc2c2ccccc12 [Example 173]
Melting Point: 263 to 264 °C

Compound: C#C/C=C/C1C(O)CCCC12CCCC(CCCC#C)N2 (stereo not drawn) [Example 60]
Melting Point: 247 to 250 °C

Compound: c1ccc2c(c1)[nH]c1ccc3cnccc3c12 [Example 99]
Melting Point: 254 to 255 °C

Incoming: Need Melting Point of Cn1ccc(N)nc1=O [Example 145] , thanks.
Outgoing: 260 to 265 °C

Incoming: Let us now turn to Cc1nc2ccccc2c2ccc([N+](=O)[O-])cc12 [Example 23]
Outgoing: 243 to 245 °C

Incoming: Would you mind doing Nc1nnc(N)n1N [Example 158] as well?
Outgoing: 262 to 263 °C

Incoming: Check C1=CCC2=C(C1)CC1=C(C2)CC2=C(CC=CC2)C1 [Example 4] too.
Outgoing: 241 to 242 °C

Incoming: What do you get for O=C(C=Cc1ccccc1)NCCCCNC(=O)C=Cc1ccccc1 [Example 74] ?
Outgoing: 249 to 253 °C

----------
# Melting Point per entry

In the examples that follow, each entry is paired with its recorded Melting Point.
Compound: COc1cc(CCN(C)C)ccc1O
Melting Point: 258 to 260 °C
//
Compound: N#Cc1ccc(Nc2ccc(C#N)cc2)cc1
Melting Point: 265 to 266 °C
//
Compound: Oc1cccc2nc3ccccc3cc12
Melting Point: 230 °C

Incoming: Item under review: N#Cc1ccc2c(=O)c3ccccc3sc2c1 . Reported Melting Point?
Outgoing: 255 to 256 °C

Incoming: Subsequent entry: O=[N+]([O-])c1c2ccccc2c([N+](=O)[O-])c2ccccc12
Outgoing: 263 °C

Incoming: Continue with Cn1c(=O)c2ccn(C)c2n(C)c1=O
Outgoing: 265 to 266 °C

Incoming: Here is the next compound: Cc1nc2c(C)c(C)c(C)c(C)c2[nH]1
Outgoing: 265 °C

Incoming: Would you mind doing CC(=O)N[C@@H]1CCC[C@H](NC(C)=O)C1 as well?
Outgoing: 262 to 264 °C

Incoming: # repeat for Oc1ccc(-c2cnc(-c3cccnc3)o2)cc1
Outgoing: 255 to 256 °C

Incoming: Request: c1ccc(-c2ccnc(-c3cc(-c4ccccc4)cc(-c4cc(-c5ccccc5)ccn4)n3)c2)cc1
Outgoing: 257 to 258 °C

Incoming: Another compound: Nc1nc(N)nc(Cc2ccccc2)n1 [Example 39]
Outgoing: 245 °C

Incoming: For CCN(CCCCN)c1ccc2c(=O)[nH][nH]c(=O)c2c1 then?
Outgoing: 259 to 260 °C

Incoming: Similarly, COc1ccccc1[C@H](C)C(=O)N1C[C@@H]2[C@H](C1)C(c1ccccc1)(c1ccccc1)CC[C@@]2(O)c1ccccc1OC ?
Outgoing: 244 °C

Incoming: Same read-out for O=C1C(=O)c2cc3ccccc3cc2-c2ccccc21 ?
Outgoing: 260 to 262 °C

Incoming: What about this compound? O=c1c2ccccc2[nH]c2c([N+](=O)[O-])cccc12
Outgoing: 262 °C

Incoming: Record: c1cnc2[nH]cnc2n1
Outgoing: 258 to 259 °C

Incoming: Also need O=c1ccc2c(cc3ccc4cccc5ccc2c3c45)c1=O , thanks.
Outgoing: 260 °C

Incoming: Can you handle Nc1nnc2ccccn12 next?
Outgoing: 245 to 247 °C

Incoming: Similarly, O=c1c(=C2Cc3cccc4cccc2c34)c2cccc3cccc1c32 ?
Outgoing: 259 to 260 °C

Incoming: Now the same for COc1ncnc2nc[nH]c12
Outgoing: 262 to 263 °C

Incoming: Record: Oc1cc2c3ccccc3ccc2c2ccccc12
Outgoing: 248 to 250 °C

Incoming: Field entry: NC(=O)c1c2ccccc2nc2ccccc12
Outgoing: 263 to 264 °C

Incoming: Would you kindly repeat that for O=C1C=Cc2c(ccc3c2ccc2ccccc23)C1=O ?
Outgoing: 260 to 261 °C

Incoming: Same thing, different compound: CCNC(=O)c1cc2c(cn1)[nH]c1ccccc12
Outgoing: 247 to 249 °C

Incoming: Next compound up: CCOc1cccc(C#N)c1
Outgoing: 241 to 244 °C

Incoming: What would you report for O=c1cc2[nH]c3ccccc3oc-2cc1=O ?
Outgoing: 264 to 265 °C

----------
Counter-ions that a name gives are not always drawn.
Measured attribute: Melting Point

Worked set:
Molecule: NC(=O)c1c2c(nc3ccccc13)CCCC2 [Example 191]
Measured attribute: Melting Point
Result: 265 to 267 °C

Molecule: N#CC(CCN1CCC(C(=O)ON2C(=O)CCC2=O)(c2ccccc2)CC1)(c1ccccc1)c1ccccc1 (as salt: hydrochloride) [Example 17]
Measured attribute: Melting Point
Result: 242 to 244 °C

Molecule: CC(C)(C)C1=CC(=C2C=C(C(C)(C)C)C(=O)C(C(C)(C)C)=C2)C=C(C(C)(C)C)C1=O [Example 22]
Measured attribute: Melting Point
Result: 243 to 245 °C

Incoming: Report Melting Point for O=C1N=C(NO)c2ccccc21 [Example 182] please.
Outgoing: 264 to 266 °C

Incoming: What do we get for Nc1nc2c([N+](=O)[O-])cccc2s1 [Example 105] ?
Outgoing: 254 °C
